Below: a set of entries, each annotated with reported AC50 for growth inhibition (log10 M).
System: SB.msgc-1
Assay: AC50 for growth inhibition (viability) (log10 M); higher = less potent
Details: SB.msgc-1 (sporadic gastric cancer)
Counter-ions that a name gives are not always drawn.
Write no unit; give the number alone.

Look over these answered cases.
>>> recorded_measurement("COc1cc2c(cc1OC)CC(=O)N(CCCN(C)C[C@H]1Cc3cc(OC)c(OC)cc31)CC2.Cl [Ivabradine hydrochloride]")
-4.58
>>> recorded_measurement("NCC/1=C/NC(=S)N1[C@H]2CCC3=C(F)C=C(F)C=C3C2 [Nepicastat hydrochloride]")
-5.03
>>> recorded_measurement("Cc1cc2c(F)c(Oc3ncnn4cc(OC[C@@H](C)O)c(C)c34)ccc2[nH]1")
-4.73

Note to self: AC50 for growth inhibition (log10 M) recorded for COc1ccc(N(C(=O)Oc2c(C)cccc2C)c2ccnc(Nc3ccc(N4CCN(C)CC4)cc3)n2)c(OC)c1 was -5.43
